B1: Osa-1-4 twister ribozyme (parent)
chain: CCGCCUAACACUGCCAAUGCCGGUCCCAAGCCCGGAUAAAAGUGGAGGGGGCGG

# Variants of: B1
# METHOD: self-cleavage, relative activity (ratio to wild type); higher = more cleavage; co-transcriptional
Would you kindly list self-cleavage for each of these variants?
Give the figure by itself; no unit, no explanation.

Asked: Entry under review: C14G U12C . Reported self-cleavage?
Given back: 0.09

Asked: Input C11A C33G
Given back: 0.04

Asked: Item: A39C G35C
Given back: 0.14

Asked: Try this variant next: A46C G53A
Given back: 0.07

Asked: And for A7C C52A ?
Given back: 0.06

Asked: Same question for A38U A46C please.
Given back: 0.06

Asked: // repeat for C20U G22U and report
Given back: 0.5

Asked: Then this variant: A36U U43A
Given back: 0.99

Asked: Try this variant next: A36U C20G
Given back: 0.19

Asked: Same read-out for C25A C32A ?
Given back: 0.08

Asked: For C9A G30C then?
Given back: 0.02

Asked: Another variant to look at: C52U G35A
Given back: 0.96

Asked: // repeat for C27G G50U and report
Given back: 0.07

Asked: Proceed to A16G G35C
Given back: 0.8

Asked: Now try G22A G42U .
Given back: 0.05

Asked: Item: G47A G54A
Given back: 0.18

Asked: Now consider A40U G22C and answer again.
Given back: 0.06

Asked: Note, next up: A17G C11A
Given back: 0.5

Asked: Try this variant next: A28C A39U
Given back: 1

Asked: Further, for A7U G30U ?
Given back: 0.02

Asked: // next record C31A G49A
Given back: 0.02
